Molecular target: T1, hGITR.mmh (human)
T1 construct: soluble monomeric construct; also called human (h) GITR.mmh; monomeric human GITR
T1 chain: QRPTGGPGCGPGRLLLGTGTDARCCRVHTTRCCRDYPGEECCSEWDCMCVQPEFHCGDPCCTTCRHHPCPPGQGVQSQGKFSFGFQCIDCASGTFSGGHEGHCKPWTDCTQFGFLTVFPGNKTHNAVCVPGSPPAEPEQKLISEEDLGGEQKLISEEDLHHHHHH
Test: SPR 37C, mAb capture
Consider the following binders and their measured kon readings.

{"Binder": "H1H14491P (antibody, human IgG1, V domains shown, human IgG1 (H1H)) VH: QVQLVESGGGVVQPGRSLRLSCVASGFTFSDYGMHWVRQAPGKGLEWVAVIWYEGSNKYYADSVTGRFTISRDNSKNTLFLQMNSLKAEDTAEYYCAKDGGQLAYQYYYGMDVWGQGTTVTVSS VL: AIQMTQSPSSLSASVGDRVTLTCRASQGIRNDLGWYQQKPGKAPKSLIYAASNLQSGVPSRFSGSGSGTDFTLTISSLQPEDSATYYCLQDYNYPRTFGQGTKVEIK", "kon": "319000 M⁻¹ s⁻¹"}
{"Binder": "H4H14530P (antibody, human IgG4, V domains shown, human IgG4 (H4H)) VH: QLQLQESGPGLVKPSETLSLTCTVSGGSISSTNHYWGWIRQPPGKGLEWIGNVYYIGNAYYNPSLKTGVTFSVDTSKNQFSLNLRSVTAADTAMYYCARLSNWNFLDLWGQGTLVTVSS VL: EIVMTQSPATLSVSPGERATLSCRASQSISSNLAWYQQKPGQAPRLLIYGASTRATGIPARFSGSGSGTEFTLTISSLQSEDFAVYYCQQFNNWLSFGGGTKVEIK", "kon": "272000 M⁻¹ s⁻¹"}
{"Binder": "H1H14523P (antibody, human IgG1, V domains shown, human IgG1 (H1H)) VH: QVQLVESGGGVVQPGRSLRLSCEASGFTFSSYGMHWVRQAPGKGLEWVAVIWYSESNKYYTDSMKGRLTISRDNSKNTLYLQMNSLRAEDTAVYYCARGGLLGKYYYYGMDVWGQGTTVTVSS VL: DIQMTQSPSSLSASVGDRVIITCRASQDIRNDLGWYQQKPGKAPKRLIYAASSLQSGVPSRFSGSGSGTEFTLTISSLQPEDFATFYCLQLNSYPYTFGQGTKLEIK", "kon": "216000 M⁻¹ s⁻¹"}
